# Test system: CCRF-CEM leukemia
# Protocol Summary: NCI tumour cell line growth inhibition, 48 h
Measured TGI accompanies every entry in the list below.

- Molecule: "COc1ccc(-c2c(C(C)=O)c(-c3ccccc3)n(C3OC(COC(C)=O)C(OC(C)=O)C(OC(C)=O)C3OC(C)=O)c(=S)c2C#N)cc1 (stereo not given)"
  TGI: "> 100 µM"
- Molecule: "COc1ccc(OC)c(/C=C/NC=O)c1"
  TGI: "> 100 µM"
- Molecule: "C[C@]12CC[C@@H]3c4ccc(O)cc4C[C@@H](CCCCCCCCCS(=O)CCCC(F)(F)C(F)(F)F)[C@H]3[C@@H]1CC[C@@H]2O (stereo not given in full)"
  TGI: "> 100 µM"
- Molecule: "Cc1ccccc1Nc1cn(COCc2ccccc2)c(=O)[nH]c1=O"
  TGI: "> 100 µM"
- Molecule: "CC1CN=C(Nc2ccc(S(N)(=O)=O)cc2)S1 (stereo not given)"
  TGI: "> 100 µM"
- Molecule: "COc1cc(C(=O)O[C@H](C(N)=O)[C@]2(C)CO2)c2ccccc2c1"
  TGI: "58 µM"
- Molecule: "COC(=O)C1=C(c2ccc3c(c2)OCO3)O[C@H](c2ccc3c(c2)OCO3)[C@H]1COC(C)=O"
  TGI: "> 100 µM"
- Molecule: "CN1C(NC(=O)c2ccc(Cl)nc2)=NS(=O)(=O)c2cc(Cl)ccc21"
  TGI: "> 100 µM"
- Molecule: "CC(=O)NNc1nc(C)c(C(/C=C/c2cccc([N+](=O)[O-])c2)=N/NC(=S)NN)s1"
  TGI: "> 100 µM"
- Molecule: "S=C(/N=c1/sc(Nc2ccccc2)nc2sc3c(c12)CCCC3)Nc1ccccc1"
  TGI: "> 62.5 µM"
